Give log reduction at 0.07 % strength for every item shown.
Test system: E. coli ATCC 10536
assay-info: BCT test (bacterial contact time), 45 s, log reduction / effect fraction; CI by Compusyn
Type: cell-based, Escherichia coli
settings: Escherichia coli, ATCC10536, 45 s, dose 0.07% w/v; contact 45 s; 20% EtOH

Would you please look over these solved cases?
• C/C=C/c1ccc(O)c(OC)c1 = 0.8
• CC(C)=CCC/C(C)=C\CO [Nerol, (Z)-3,7-dimethyl-2,6-octadien-1-ol] = 7
• CCCCCCC1CCC(=O)O1 (stereo not shown) = 2.8

Attention now turns to another entry.
Could you tell me which log reduction at 0.07 % strength is on file for "C=C(C)[C@@H]1CC=C(CO)CC1" ?
1.2

----------
System: S. haemolyticus 114126
assay-info: BCT test (bacterial contact time), 120 s, log reduction / effect fraction; CI by Compusyn
Type: cell-based
settings: Staphylococcus haemolyticus, 114126, 2 min, dose 0.15% w/v; contact 120 s; 25% EtOH
measured-quantity: log reduction at 0.15 % strength
Numbers only.

• C=C(C)[C@@H]1CC=C(CO)CC1 [Perycorolle] = 1.9
• CC(CCO)CCc1ccccc1 (stereo not shown) [Phenylhexanol, 3-methyl-5-phenyl-1-pentanol] = 6.1
• C/C=C/c1ccc(O)c(OC)c1 [Isoeugenol, 2-Methoxy-4-(prop-1-en-1-yl)phenol] = -0.3
• CC(C)=CCC/C(C)=C/CO [Geraniol Pur] = 7.1
• CC(C)=CCC/C(C)=C\CO [Nerol, (Z)-3,7-dimethyl-2,6-octadien-1-ol] = 6.2

Parameters: items (list). Returns: log reduction at 0.15 % strength for each item.
1. CCCCCCC1CCC(=O)O1 (stereo not shown) [Decal]
2. CCC(C)(O)CCCC(C)C (stereo not shown) [Tetralinol, 3,7-Dimethyl-3-octanol]

[1.2, 7.1]

----------
Tested on: Pseudomonas aeruginosa ATCC 15442
assay-info: BCT test (bacterial contact time), 60 s, log reduction / effect fraction; CI by Compusyn
Format: cell-based
settings: Pseudomonas aeruginosa, ATCC15442, 1 min, Dose 0.3 % w/v; BCT 60 s; in 25% EtOH; read-out: Log reduction
Exercise: for every item that follows, state its recorded log reduction at 0.3 % strength.
Numbers only.

Worked set:
• COc1ccc(C=O)cc1 [Aldehyde Anisic, 4-methoxybenzaldehyde] = 0.6
• Cc1ccc2c(c1)OCC(=O)CO2 [Calone, 7-methyl-2H-1,5-benzodioxepin-3(4H)-one] = 1
• O=c1ccc2ccccc2o1 [Coumarine, 2H-chromen-2-one] = 0.4

# ---- query compound ----
I am curious: what log reduction at 0.3 % strength value has been reported for OC/C=C/c1ccccc1 [Cinnamic alcohol, (2E)-3-phenyl-2-propen-1-ol] ?
6.7

----------
System: Pseudomonas aeruginosa ATCC 15442
assay-info: BCT test (bacterial contact time), 60 s, log reduction / effect fraction; CI by Compusyn
Format: cell-based
settings: Pseudomonas aeruginosa, ATCC15442, 1 min, Dose 0.5 % w/v; BCT 60 s; in 25% EtOH
Task for the reader: assign each of the following compounds its reported log reduction at 0.5 % strength.
Numbers only.

- COc1ccc(C=O)cc1: 7
- Cc1ccc2c(c1)OCC(=O)CO2 [Calone, 7-methyl-2H-1,5-benzodioxepin-3(4H)-one]: 6.9
- O=c1ccc2ccccc2o1: 2.9

Next compound, please.
Given the compound CC(=O)OCc1ccccc1 [Benzyl acetate, benzyl acetate] , what is its reported log reduction at 0.5 % strength?
7.4
